# pIC50 listing for each entry below
measured target: Amyloid-beta A4 precursor protein-binding family A member 1 (Rattus norvegicus, UniProt O35430)
Sequence (O35430 whole entry): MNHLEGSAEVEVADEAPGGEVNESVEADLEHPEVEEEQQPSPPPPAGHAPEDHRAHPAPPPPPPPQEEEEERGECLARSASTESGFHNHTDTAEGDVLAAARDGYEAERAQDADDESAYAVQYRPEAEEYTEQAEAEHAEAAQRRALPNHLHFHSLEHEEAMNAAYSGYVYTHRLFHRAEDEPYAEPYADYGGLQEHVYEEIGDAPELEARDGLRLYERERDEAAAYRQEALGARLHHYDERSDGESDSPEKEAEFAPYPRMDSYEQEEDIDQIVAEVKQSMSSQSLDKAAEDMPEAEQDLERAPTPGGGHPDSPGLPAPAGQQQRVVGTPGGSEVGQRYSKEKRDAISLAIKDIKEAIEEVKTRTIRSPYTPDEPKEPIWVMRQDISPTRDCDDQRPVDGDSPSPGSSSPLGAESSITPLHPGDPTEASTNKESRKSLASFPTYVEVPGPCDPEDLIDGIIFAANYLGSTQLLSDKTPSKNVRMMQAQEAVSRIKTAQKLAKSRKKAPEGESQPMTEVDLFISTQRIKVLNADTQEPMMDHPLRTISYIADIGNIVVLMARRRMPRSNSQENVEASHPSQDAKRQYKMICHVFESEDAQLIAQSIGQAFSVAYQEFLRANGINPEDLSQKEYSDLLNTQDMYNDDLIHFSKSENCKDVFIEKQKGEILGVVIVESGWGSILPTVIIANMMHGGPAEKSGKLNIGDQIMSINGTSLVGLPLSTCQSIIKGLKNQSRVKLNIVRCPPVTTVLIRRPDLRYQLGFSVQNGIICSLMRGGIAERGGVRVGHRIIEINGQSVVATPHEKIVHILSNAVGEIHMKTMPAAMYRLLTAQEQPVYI
method summary: disruptors of Mint-PDZ/N-type channel peptide interaction – biochemical, HTRF, set 2, SAR follow-up (AID 434980)
pIC50 here is simply -log10 of the concentration when that concentration is written in mol/L.

Here are 2 compounds together with their reported answers.
# compound, observed
data = [
    ("CCCc1ccc(CC2=C(C(=O)OCC)C(=O)c3ccccc3C2=O)cc1 [MLS000571357]", 5.24),
    ("Cc1cccc(-n2c(O)c3c(c2O)C2(C)C=CC3(C)O2)c1", 5.05),
]

Query :: Sample CC(=O)Oc1ccc(-n2c(O)c3c(c2O)C2(C)C=CC3(C)O2)cc1 [MLS000107813] — what was its pIC50?
Result :: 5.19

Query :: GET /values?readout=pIC50&item= CC12C=CC(C)(O1)c1c2c(O)n(-c2ccccc2)c1O
Result :: 4.98

Query :: Record request: pIC50 value, item CC(=O)Oc1ccc(-n2c(O)c3c(c2O)C2C=CC3O2)cc1
Result :: 4.73

Query :: # get_value(readout='pIC50', item= CC12C=CC(C)(O1)c1c2c(O)n(-c2ccc(F)cc2)c1O )
Result :: 5.05
